FYI, the data here is from patent US7371769B2.

Biological target: dopamine-D2 receptors (Rattus norvegicus)
Construct: labels dopamine receptors in rat pituitary and brain; from tissue; host or cells: rat pituitary / brain (from the title of the cited method only)
Sequence (P61169 whole entry): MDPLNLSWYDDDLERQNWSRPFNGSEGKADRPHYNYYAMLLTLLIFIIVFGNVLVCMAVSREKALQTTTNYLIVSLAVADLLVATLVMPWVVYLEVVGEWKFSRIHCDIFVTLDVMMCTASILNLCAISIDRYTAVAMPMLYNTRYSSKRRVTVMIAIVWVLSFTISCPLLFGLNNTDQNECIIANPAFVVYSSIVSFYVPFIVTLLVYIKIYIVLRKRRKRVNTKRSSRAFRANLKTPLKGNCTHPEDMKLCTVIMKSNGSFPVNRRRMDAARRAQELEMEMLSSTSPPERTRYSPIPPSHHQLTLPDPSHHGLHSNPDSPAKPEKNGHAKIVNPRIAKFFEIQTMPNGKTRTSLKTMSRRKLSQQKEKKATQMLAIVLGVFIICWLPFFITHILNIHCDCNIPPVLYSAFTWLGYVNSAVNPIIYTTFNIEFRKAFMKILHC
Experiment: In vitro affinity for dopamine-D2 receptors ([3H]-spiroperidol receptor binding assay)
Settings: read-out: Dopamine-D2 pKi (converted)
measure.name: log10 of Ki (log10 of the value in nM)
In our notation, the value equals log10 of Ki in nM.

Noted log10 of Ki for Cc1nc2cc(-c3ccccc3)ccn2c(=O)c1CCN1CC=C(c2c[nH]c3ccccc23)CC1 , tested on dopamine-D2 receptors (Rattus norvegicus): 1.80

Here CSc1nc(C)c(CCN2CC=C(c3cn(C)c4ccccc34)CC2)c(=O)n1C was tested on dopamine-D2 receptors (Rattus norvegicus), and its log10 of Ki came to 2.00

Bench note, dopamine-D2 receptors (Rattus norvegicus): entry Cc1ccn2c(=O)c(CCN3CC=C(c4c[nH]c5ccc(F)cc45)CC3)c(C)nc2c1 , its log10 of Ki = 1.50

With dopamine-D2 receptors (Rattus norvegicus) as the test system, Cc1nc2ccccn2c(=O)c1CCN1CC=C(c2c[nH]c3ccc(F)cc23)CC1 showed log10 of Ki of 1.20

GET /values?item= CSc1nc(C)c(CCN2CC=C(c3c[nH]c4ccccc34)CC2)c(=O)[nH]1 &system= dopamine-D2 receptors (Rattus norvegicus) returns log10 of Ki: 2.00

Fill in: dopamine-D2 receptors (Rattus norvegicus) log10 of Ki for Cc1nc2c(C)cccn2c(=O)c1CCN1CC=C(c2c[nH]c3ccccc23)CC1 = 0.90

Known value: dopamine-D2 receptors (Rattus norvegicus) log10 of Ki of the molecule Cc1nc2ccccn2c(=O)c1CCN1CC=C(c2c[nH]c3ccccc23)CC1 equals 1.30

Reported dopamine-D2 receptors (Rattus norvegicus) log10 of Ki for item COc1nc(C)c(CCN2CC=C(c3c[nH]c4ccccc34)CC2)c(=O)n1C was 1.50
